test_system: recombinant His-tag Wip1 full length protein (amino acids #1-605) (Homo sapiens (Human), UniProt O15297)
Sequence (O15297 whole entry): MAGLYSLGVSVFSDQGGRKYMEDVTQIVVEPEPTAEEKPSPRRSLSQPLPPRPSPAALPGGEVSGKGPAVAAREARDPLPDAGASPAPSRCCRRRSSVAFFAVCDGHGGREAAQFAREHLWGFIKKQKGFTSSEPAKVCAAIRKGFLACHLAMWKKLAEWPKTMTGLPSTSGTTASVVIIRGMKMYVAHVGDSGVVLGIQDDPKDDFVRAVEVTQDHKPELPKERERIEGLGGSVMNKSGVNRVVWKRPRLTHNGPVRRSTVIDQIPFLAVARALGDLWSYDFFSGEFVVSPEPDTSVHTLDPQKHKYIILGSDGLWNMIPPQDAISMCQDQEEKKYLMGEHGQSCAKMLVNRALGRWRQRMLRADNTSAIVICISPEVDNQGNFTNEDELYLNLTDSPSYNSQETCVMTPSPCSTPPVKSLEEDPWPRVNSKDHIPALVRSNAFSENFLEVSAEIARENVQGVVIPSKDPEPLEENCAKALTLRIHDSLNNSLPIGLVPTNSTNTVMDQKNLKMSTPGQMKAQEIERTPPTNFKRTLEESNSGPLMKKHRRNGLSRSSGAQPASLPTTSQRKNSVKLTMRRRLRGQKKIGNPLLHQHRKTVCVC
measurement_description: Wip1 full length phosphatase enzyme FDP assay
settings: fluorescein diphosphate (FDP) substrate, RT 2 hours, fluorescence Ex485/Em535
This listing pairs compounds with measured IC50.

substance_smiles: Cc1ncc(Cl)cc1N[C@@H](C)c1ccc(C(=O)N[C@@H](CC2CCCC2)C(=O)N[C@H]2C[C@H](F)C2)s1
units_label: nM
IC50: 7

substance_smiles: COCCOc1ccc(NC(=O)[C@H](CC2CCCC2)NC(=O)c2ccc([C@H](C)Nc3cc(Cl)cnc3C)s2)cc1
units_label: nM
IC50: 7

substance_smiles: Cc1cc(NC(=O)[C@H](CCC(C)C)NC(=O)c2ccc([C@H](C)Nc3cc(Cl)cnc3C)s2)ccn1
units_label: nM
IC50: 10

substance_smiles: C[C@H](Nc1ccc(F)c(Cl)c1)c1ccc(C(=O)N[C@@H](CC2CCCC2)C(=O)NC2CC2)s1
units_label: nM
IC50: 9

substance_smiles: Cc1ccc(NC(=O)[C@H](CC2CCCC2)NC(=O)c2ccc([C@H](C)Nc3cc(Cl)cnc3C)s2)cn1
units_label: nM
IC50: 8

substance_smiles: Cc1ncc(Cl)cc1NC(C)(C)c1ccc(C(=O)N[C@@H](CC2CCCC2)C(=O)NC23CC(C2)C3)s1
units_label: nM
IC50: 11

substance_smiles: Cc1cc(NC(=O)[C@H](CC2CCCC2)NC(=O)c2cnc([C@@H](C)Nc3cccc(Cl)c3)s2)ccn1
units_label: nM
IC50: 11

---

test_system: recombinant His-tag Wip1 full length protein (amino acids #1-605) (Homo sapiens (Human))
measurement_description: Wip1 full length phosphatase enzyme FDP assay
settings: fluorescein diphosphate (FDP) substrate, RT 2 hours, fluorescence Ex485/Em535
Text: The Human Wip1 (2-420, aa 2-420) or Wip1 full length (aa 1-605) DNA sequence was codon optimized and synthesized by Genscript for insect cell expression. The open reading frame of Wip1(2-420) with a N-terminal-His6 affinity tag followed by a TEV cleavage site was subcloned sites into the pFastBac1 expression vector. The recombinant bacmid DNA was transfected in Sf9 insect cells for baculovirus production. […]
recorded_metric: IC50

substance_smiles: COc1cc(NC(=O)[C@H](CC2CCCC2)NC(=O)c2ccc([C@H](C)Nc3cc(Cl)cnc3C)s2)ccn1
test_system: recombinant His-tag Wip1 full length protein (amino acids #1-605) (Homo sapiens (Human))
measured_result: 9 nM
//
substance_smiles: Cc1ncc(Cl)cc1N[C@@H](C)c1ccc(C(=O)N[C@@H](CC2CCCC2)C(=O)N[C@@H]2CC2(F)F)s1
test_system: recombinant His-tag Wip1 full length protein (amino acids #1-605) (Homo sapiens (Human))
measured_result: 8 nM
//
substance_smiles: Cc1ncc(Cl)cc1N[C@@H](C)c1ccc(C(=O)N[C@@H](CC2CCCC2)C(=O)N[C@H]2CC2(F)F)s1
test_system: recombinant His-tag Wip1 full length protein (amino acids #1-605) (Homo sapiens (Human))
measured_result: 8 nM
//
substance_smiles: Cc1ncc(Cl)cc1N[C@H](C)c1ccc(C(=O)N[C@@H](CC2CCCC2)C(=O)N[C@H]2CC2(F)F)s1
test_system: recombinant His-tag Wip1 full length protein (amino acids #1-605) (Homo sapiens (Human))
measured_result: 139 nM
